# credit: ChEMBL document CHEMBL5241054

Task for the reader: assign each of the following molecules its reported IC50.
// note: answer is a bare numeric in µM

Tested on Aromatase (Homo sapiens): C[C@]12CC[C@@H]3c4ccc(O)cc4[C@H](c4ccccc4)C[C@H]3[C@@H]1CCC2=O . Observed IC50: 12

C[C@]12CCC(=O)C=C1[C@H](Br)C[C@@H]1[C@@H]2CC[C@]2(C)C(=O)CC[C@@H]12 tested on Aromatase (Homo sapiens) gave IC50: 0.8

Response field IC50 (Aromatase (Homo sapiens)) for item C[C@]12CC[C@H]3[C@@H](CCC4=CC(=O)CC[C@@]43CCCl)[C@@H]1CCC2=O : 8

Here C[C@]12CC[C@H]3[C@@H](C(=O)C=C4C=CCC[C@@]43C=O)[C@@H]1CCC2=O was tested on Aromatase (Homo sapiens), and its IC50 came to 11

Recorded IC50 for CCCCC[C@@H]1C[C@@]2(C)C(=CC1=O)CC[C@@H]1[C@@H]2CC[C@]2(C)C(=O)CC[C@@H]12 on Aromatase (Homo sapiens) was 1.28
